# assayedSystem: NbPYL1b (Nicotiana benthamiana)
# Construct: full ORF amplified from Nb genomic DNA (CDS 678 nt, 225 residues by count) in pETM11, His-tagged, E. coli BL21(DE3), Ni-NTA; dimer in gel filtration (apo); assayed with N-terminally truncated HAB1 (ΔN-HAB1); with Protein phosphatase 2C 16
# Sequence (Z9Z2X8O5T5 1-225): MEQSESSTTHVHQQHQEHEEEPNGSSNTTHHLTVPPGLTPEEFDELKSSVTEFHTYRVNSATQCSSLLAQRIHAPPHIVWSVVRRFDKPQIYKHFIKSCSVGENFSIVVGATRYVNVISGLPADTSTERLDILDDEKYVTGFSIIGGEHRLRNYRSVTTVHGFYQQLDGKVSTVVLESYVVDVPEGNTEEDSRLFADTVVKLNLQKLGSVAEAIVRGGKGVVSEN
# Sequence (Q9CAJ0 172-511 partner limits assumed): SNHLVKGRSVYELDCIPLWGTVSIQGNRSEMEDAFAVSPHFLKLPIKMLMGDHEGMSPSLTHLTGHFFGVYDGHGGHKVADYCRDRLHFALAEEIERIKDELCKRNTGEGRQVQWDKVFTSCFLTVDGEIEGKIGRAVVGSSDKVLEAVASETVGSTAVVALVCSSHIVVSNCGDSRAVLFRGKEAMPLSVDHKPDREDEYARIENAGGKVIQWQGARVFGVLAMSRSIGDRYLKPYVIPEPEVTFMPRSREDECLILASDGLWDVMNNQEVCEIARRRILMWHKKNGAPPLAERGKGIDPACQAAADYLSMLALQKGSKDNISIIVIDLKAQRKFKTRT
# protocolText: ligand-dependent inhibition of PP2C HAB1 by receptor, pNPP, […] nm
# protocolConditions: 0.5 μM ΔN-HAB1, 1 or 2 μM NbPYL1b, 25 mM pNPP, 2 mM MnCl2, 25 mM Tris HCl pH 7.5; agonist, IC50 read on HAB1 activity
quantityMeasured: pIC50
Answers are plain numbers, as −log10 of the molar value.

Endpoint output: pIC50 of Cc1ccc(CS(=O)(=O)Nc2ccc(C#N)c(C3CC3)c2)cc1 [CB] . Value?
6.90
